These data points were gathered from patent US20250326748A1.

Quick reference: IC50 of the listed items.
Tested on: MYB mRNA
Assay notes: Splicing RT-qPCR assay, MYB canonical (CJ) and alternative (AJ) junction mRNA
Type: cell-based, human
Applied conditions: Homo sapiens; canonical junction mRNA, RT-qPCR, A673 or K562 cells, 24 hours treatment; read-out: MYB CJ (IC50, decrease in CJ mRNA)

Below are worked cases with known answers.
# Molecule, Assayed target, Measured
records = [
    ("COc1nc(-c2cc3cn(C)nc3c(F)c2O)nc2ncc(N3C[C@@H](C)N[C@@H](C)C3)cc12", "MYB mRNA", "< 100 nM"),
    ("Cc1cn2cc(-c3cc(Cl)c4cc(N5CCNCC5)cnc4n3)cc(F)c2n1", "MYB mRNA", "100 to 1000 nM"),
    ("CNC1CCN(c2cnc3nc(-c4cc5cn(C)nc5c(C)c4O)cc(OC)c3n2)C1 (stereo not shown)", "MYB mRNA", "1000 to 10000 nM"),
    ("Cc1nc2c(C)c(O)c(-c3cnc4cc(N5CCC(NC6CC6)C5)ccc4n3)cc2o1 (stereo not shown)", "MYB mRNA", "< 100 nM"),
]

Quick one: give measured IC50 for CN1CCC[C@H]2CN(c3cnc4nc(-c5cc6cn(C)nc6c(F)c5O)cc(Cl)c4c3)C[C@H]21
100 to 1000 nM

Quick one: give measured IC50 for Cn1cc2cc(-c3cnc4cc(N5CCC(NC6CC6)C5)ccc4n3)c(O)c(F)c2n1 (stereo not shown)
< 100 nM

Quick one: give measured IC50 for Cc1c(O)c(-c2ccc3c(Cl)c(N4CCNCC4)cnc3n2)cc2cn(C)nc12
< 100 nM

Quick one: give measured IC50 for CN[C@H]1CN(c2cnc3nc(-c4cc5cn(C)nc5c(C)c4O)ccc3c2)C[C@H]1F
100 to 1000 nM

Quick one: give measured IC50 for Cc1cn2nc(-c3ccc4cc(NC5CCNCC5)cnc4n3)cc(C)c2n1
1000 to 10000 nM

* * *

System: MYB mRNA
Assay notes: Splicing RT-qPCR assay, MYB canonical (CJ) and alternative (AJ) junction mRNA
Type: cell-based, human
Applied conditions: canonical junction mRNA, qPCR panel; read-out: MYB CJ (decrease in CJ mRNA levels, IC50)
pIC50: −log10 of the molar value.
Readout name: pIC50

Quick one: give measured pIC50 for Cc1c(O)c(-c2cc(Cl)c3cc(N4C[C@@H](C)N[C@@H](C)C4)cnc3n2)cc2cn(C)nc12 [Compound 207]
> 7.00

* * *

Quick reference: pIC50 of the listed items.
Test system: MYB mRNA
Assay notes: Splicing RT-qPCR assay, MYB canonical (CJ) and alternative (AJ) junction mRNA
Type: cell-based, human
Applied conditions: Homo sapiens; canonical junction mRNA, RT-qPCR, A673 or K562 cells, 24 hours treatment; read-out: MYB CJ (IC50, decrease in CJ mRNA)
pIC50: −log10 of the molar value.

Below are worked cases with known answers.
# Compound, Readout name, Measured
records = [
    ("CCNC1CCN(c2cnc3nc(-c4cc5cn(C)nc5c(F)c4O)ccc3c2)C1 (stereo not drawn) [Compound 106]", "pIC50", "> 7.00"),
    ("C[C@H]1CN(c2cnc3nc(-c4cc(F)c5nn(C)cc5c4)cc(Cl)c3c2)C[C@H](C)N1 [Compound 250]", "pIC50", "> 7.00"),
    ("C[C@H]1CN(c2cnc3nc(-c4cc(F)c5nn(C)cc5c4)ccc3c2Cl)CCN1 [Compound 385]", "pIC50", "> 7.00"),
]

Quick one: give measured pIC50 for Cc1c(O)c(-c2cc(C3CC3)c3cc(N4CCNCC4)cnc3n2)cc2cn(C)nc12 [Compound 144, bis(2,2,2-trifluoroacetate)]
6.00 to 7.00

Quick one: give measured pIC50 for COc1nc(-c2cc3cn(C)nc3c(C)c2O)nc2ncc(N3CCC(N(C)C)CC3)cc12 [Compound 163]
6.00 to 7.00

Quick one: give measured pIC50 for CN[C@@H]1CN(c2cnc3nc(-c4cc5cn(C)nc5c(C)c4O)ccc3c2)C[C@@H]1C [Compound 128]
> 7.00

* * *

System: HTT mRNA
Assay notes: Splicing RT-qPCR assay, HTT canonical (CJ) and alternative (AJ) junction mRNA
Format: cell-based, human
Applied conditions: Homo sapiens, canonical junction mRNA, qPCR panel; read-out: HTT CJ (decrease in CJ mRNA levels, IC50)
pIC50: −log10 of the molar value.
Readout name: pIC50

Quick one: give measured pIC50 for CN[C@@H]1CCN(c2cnc3nc(-c4cc(C)c5nc(C)cn5n4)cc(Cl)c3c2)C1 [Compound 341]
> 7.00

* * *

Quick reference: pIC50 of the listed items.
System: HTT mRNA
Assay notes: Splicing RT-qPCR assay, HTT canonical (CJ) and alternative (AJ) junction mRNA
Type: cell-based, human
Applied conditions: Homo sapiens, canonical junction mRNA, qPCR panel; read-out: HTT CJ (decrease in CJ mRNA levels, IC50)
pIC50: −log10 of the molar value.

# Compound, Measured
rows = [
    ("COc1nc(-c2cc3cn(C)nc3c(F)c2O)nc2ncc(N3CCC(N(C)C)CC3)cc12", "> 7.00"),
    ("Cc1cn2nc(-c3cc(Cl)c4cc(N5CCC(N(C)C)CC5)cnc4n3)cc(C)c2n1", "6.00 to 7.00"),
    ("CN[C@@H]1CCN(c2cnc3nc(-c4cc(C)c5nc(C)cn5n4)ccc3c2)C1", "5.00 to 6.00"),
]

Could you now look at the following compound, please?
Quick one: give measured pIC50 for Cn1cc2cc(-c3cnc4nc(N5CCC(NC(C)(C)C)C5)ccc4c3)c(O)cc2n1 (stereo not shown)
5.00 to 6.00

* * *

Quick reference: IC50 of the listed items.
Test system: HTT mRNA
Assay notes: Splicing RT-qPCR assay, HTT canonical (CJ) and alternative (AJ) junction mRNA
Format: cell-based, human
Applied conditions: Homo sapiens, canonical junction mRNA, qPCR panel; read-out: HTT CJ (decrease in CJ mRNA levels, IC50)

# Compound, IC50
measured = [
    ("CN[C@H]1CCN(c2cnc3nc(-c4cc5cn(C)nc5c(C)c4O)cc(Cl)c3c2)C1.Cl [Compound 287]", "< 0.1 µM"),
]

Quick one: give measured IC50 for C[C@H]1CN(c2cnc3nc(-c4cc5cn(C)nc5cc4O)cc(Cl)c3c2)C[C@H](C)N1 [Compound 242]
0.1 to 1 µM

Quick one: give measured IC50 for Cn1cc2cc(-c3cnc4nc(N5CCC(NC6CC6)C5)ccc4n3)c(O)c(F)c2n1 (centres unmarked) [Compound 178]
< 0.1 µM

Quick one: give measured IC50 for Cc1c(O)c(-c2cc(Cl)c3cc(N4CCNC5(CC5)C4)cnc3n2)cc2cn(C)nc12 [Compound 381]
0.1 to 1 µM

Quick one: give measured IC50 for Cc1c(O)c(-c2cc(Cl)c3cc(N4C[C@H](C)N[C@@H](C)C4)cnc3n2)cc2cn(C)nc12 [Compound 232]
< 0.1 µM

Quick one: give measured IC50 for CN[C@H]1CCN(c2cnc3nc(-c4cc(C)c5nc(C)cn5n4)cc(Cl)c3c2)C1 [Compound 340]
0.1 to 1 µM

Quick one: give measured IC50 for Cn1cc2cc(-c3ccc4cc(N5CC[C@H](NCC6CC6)C5)cnc4n3)c(O)c(F)c2n1 [Compound 136]
0.1 to 1 µM

Quick one: give measured IC50 for Cn1cc2cc(-c3ccc4cc(N5CC[C@H](NCC6CC6)C5)cnc4n3)c(O)cc2n1 [Compound 314]
0.1 to 1 µM

Quick one: give measured IC50 for CN[C@@H]1CCN(c2cnc3nc(-c4cc(F)c5nc(C)cn5c4)ncc3c2)C1 [Compound 202]
0.1 to 1 µM

Quick one: give measured IC50 for Cl.Cn1cc2cc(-c3cc(Cl)c4cc(N5CC[C@H](NCCF)C5)cnc4n3)c(O)cc2n1 [Compound 389]
1 to 10 µM

Quick one: give measured IC50 for Cn1cc2cc(-c3cc(Cl)c4cc(N5CCNCC5)cnc4n3)c(O)cc2n1 [Compound 102]
0.1 to 1 µM

Quick one: give measured IC50 for C[C@@H]1CN(c2cnc3nc(-c4cc(C#N)c5nn(C)cc5c4)cc(Cl)c3c2)C[C@H](C)N1 [Compound 325, 2,2,2-trifluoroacetate]
> 10 µM

Quick one: give measured IC50 for COc1nc(-c2cc3cn(C)nc3c(C)c2O)nc2ncc(N3CCNCC3)cc12 [Compound 162]
0.1 to 1 µM

Quick one: give measured IC50 for Cc1cn2nc(-c3cc(Cl)c4cc(N5C[C@H](C)NC6(CC6)C5)cnc4n3)cc(C)c2n1 [Compound 400]
1 to 10 µM

* * *

System: MYB mRNA
Assay notes: Splicing RT-qPCR assay, MYB canonical (CJ) and alternative (AJ) junction mRNA
Type: cell-based, human
Applied conditions: Homo sapiens; canonical junction mRNA, RT-qPCR, A673 or K562 cells, 24 hours treatment; read-out: MYB CJ (IC50, decrease in CJ mRNA)
pIC50: −log10 of the molar value. Where a name gives a salt, the structure may show the parent alone.
Quick reference: pIC50 of the listed items.

Below are worked cases with known answers.
# Compound, Assayed target, Measured
measured = [
    ("CCN[C@H]1CCN(c2cnc3nc(-c4cc5cn(C)nc5cc4O)cc(Cl)c3c2)C1", "MYB mRNA", "> 7.00"),
    ("C[C@@H]1CN(c2cnc3nc(-c4cc5cn(C)nc5c(F)c4O)cc(C#N)c3c2)C[C@H](C)N1 [Compound 266, hydrochloride]", "MYB mRNA", "> 7.00"),
]

Quick one: give measured pIC50 for Cn1cc2cc(-c3ccc4cc(N5CC[C@H](NCC6CC6)C5)cnc4n3)c(O)c(F)c2n1
6.00 to 7.00

Quick one: give measured pIC50 for Cc1c(O)c(-c2cc(C3CC3)c3cc(N4C[C@@H](C)N[C@@H](C)C4)cnc3n2)cc2cn(C)nc12
6.00 to 7.00
